From: ChEMBL document CHEMBL3352232

assay: Stability in mouse liver microsomes assessed as compound remaining after 10 mins; type: ADME; conditions: read-out: Stability

smiles data: O=S(=O)(c1cccc(-c2ccccc2)n1)N1CCC(N2CCOCC2)CC1
unit info: %
remaining at 10 min: 7

---

assay: Stability in human liver microsomes assessed as compound remaining after 10 mins; format: ADME; details: read-out: Stability
reported property: remaining at 10 min (%)

smiles data: O=S(=O)(c1cccc(-c2ccccc2)n1)N1CCC(N2CCOCC2)CC1
numeric result: 62

---

assay: Aqueous solubility of the compound; assay type: physicochemical
# solubility annotations
reported property: solubility (µg/mL)

molecule: N#Cc1ccc(-c2cccc(S(=O)(=O)N3CCC(N4CCCC4)CC3)n2)cc1
reported property: solubility
censoring operator: =
numeric result: 270
//
molecule: CC1CCN(S(=O)(=O)c2cccc(-c3ccc(C#N)cc3)n2)CC1
reported property: solubility
censoring operator: =
numeric result: 2
//
molecule: CC1CCN(S(=O)(=O)c2cccc(-c3ccc(Cl)cc3)n2)CC1
reported property: solubility
censoring operator: =
numeric result: 1
//
molecule: N#Cc1ccc(-c2cccc(S(=O)(=O)N3CCC(N4CCOCC4)C3)n2)cc1 (configuration not stated)
reported property: solubility
censoring operator: =
numeric result: 14
//
molecule: O=S(=O)(c1cccc(-c2ccccc2)n1)N1CCC(N2CCOCC2)CC1
reported property: solubility
censoring operator: =
numeric result: 48
//
molecule: N#Cc1ccc(-c2cccc(S(=O)(=O)N3CCC(C4CCCCC4)CC3)n2)cc1
reported property: solubility
censoring operator: <
numeric result: 1
//
molecule: CC1CCN(S(=O)(=O)c2cccc(-c3cccc(Cl)c3)n2)CC1
reported property: solubility
censoring operator: =
numeric result: 1

---

test: Stability in rat liver microsomes assessed as compound remaining after 10 mins; type: ADME; conditions: read-out: Stability

smiles data: O=S(=O)(c1cccc(-c2ccccc2)n1)N1CCC(N2CCOCC2)CC1
unit info: %
remaining at 10 min: 4
